The reported numbers originate from the supplement of paper PMC11208160.

Reported recombinant UMI read abundance (log10) values for a set of sequences
Assay: recombinant UMI read abundance after kanamycin selection (control-corrected) (log10(CPM+1)); higher = more efficient recombination; extreme values may be limits of the assay; sequences stand for … in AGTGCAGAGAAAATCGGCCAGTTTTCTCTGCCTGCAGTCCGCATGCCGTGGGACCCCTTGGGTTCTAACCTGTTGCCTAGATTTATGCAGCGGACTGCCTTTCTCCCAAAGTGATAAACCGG…AGGTTGGTTTCACT; site = the 11-nt donor;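 also: IS621 bridge recombinase in Escherichia coli cells against a fixed T5 target plasmid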

| macromolecule_sequence | recombinant UMI read abundance (log10) |
| --- | --- |
| TGGTAATCATGGACCGGTTTTCCCGGTAATCCGTATTTGTG (site TGGTAATCTCA) | 1.65 |
| CCAAATTCATGGACCGGTTTTCCCGGTAATCCGTATTTGTT (site CCAAATTCTAA) | 0 |
| ATTAGGCCATGGACCGGTTTTCCCGGTAATCCGTATTTGAC (site ATTAGGCCTGT) | 0 |
| CCCGGTCCATGGACCGGTTTTCCCGGTAATCCGTATTTGCG (site CCCGGTCCTGG) | 0 |
| TGTACCCCATGGACCGGTTTTCCCGGTAATCCGTATTTGAC (site TGTACTCCTGT) | 0.00417 |
| CGCTAGCCATGGACCGGTTTTCCCGGTAATCCGTATTTGCC (site CACTAGCCTGG) | 0.0111 |
| AGGTTGCCATGGACCGGTTTTCCCGGTAATCCGTATTTGTG (site AGGTTGCCTCA) | 0.00688 |
| AGGGAGACATGGACCGGTTTTCCCGGTAATCCGTATTTGCG (site AGGAAGACTTG) | 0.64 |
| TTGGCGGCATGGACCGGTTTTCCCGGTAATCCGTATTTGCT (site TTAGCGGCTAG) | 1.3 |
| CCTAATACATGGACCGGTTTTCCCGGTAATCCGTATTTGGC (site CCTAATACTGT) | 0 |
| CCCGCTCCATGGACCGGTTTTCCCGGTAATCCGTATTTGCA (site CCCGGTCCTTG) | 0 |
| AGCTCAGCATGGACCGGTTTTCCCGGTAATCCGTATTTGGC (site AGCTCAGCTCC) | 0.00906 |
| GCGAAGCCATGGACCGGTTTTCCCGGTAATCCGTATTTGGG (site GCGCAGCCTCC) | 0.011 |
| TACATAACATGGACCGGTTTTCCCGGTAATCCGTATTTGCA (site TACATAACTTG) | 0.258 |
| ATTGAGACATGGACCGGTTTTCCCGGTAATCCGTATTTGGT (site ATTGAAACTAC) | 1.88 |
| GCTACCGCATGGACCGGTTTTCCCGGTAATCCGTATTTGCC (site GCTACGGCTGG) | 0 |
| TGTACACCATGGACCGGTTTTCCCGGTAATCCGTATTTGAA (site TGTACACCTCT) | 0.00905 |
| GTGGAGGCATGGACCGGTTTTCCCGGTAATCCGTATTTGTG (site GTGGAGCCTCA) | 0.0109 |
| TGCTGGGCATGGACCGGTTTTCCCGGTAATCCGTATTTGGT (site TGCTCGGCTAC) | 0.0121 |
| TCACTCGCATGGACCGGTTTTCCCGGTAATCCGTATTTGAA (site TCACTCGCTTT) | 1.86 |
